assay: blockers of DNA damage checkpoint Chk1 activation – imaging, HeLa, hydroxyurea, phospho-Chk1 nuclear intensity, primary screen (AID 1187); settings: hydroxyurea-induced phospho-Chk1 immunofluorescence imaging, higher = more signal; note: test concentration not given here
Classification field: enter Fulfilled for z-score values not below -0.3, Not fulfilled for values below it.

Reference set (10 entries):
C=C(/C(=C/C[C@H](OC(C)=O)c1ccc(CO)o1)c1cnc2ccccc2c1)C(C)C	Fulfilled
COC(=O)[C@@]1(Cc2ccc(F)cc2)[C@H]2c3cc(C(=O)N4CCCC4)n(CCc4c[nH]c5ccccc45)c3C[C@H]2CN1C(=O)c1ccccc1	Fulfilled
O=C(NCc1ccc(F)cc1)[C@H]1C[C@H]2C(=O)NCC(=O)N2[C@H]1c1ccc(O)cc1	Not fulfilled
CC1CC/C=C\[C@H]2OC34C=CCN(Cc5ccccc5)C(=O)[C@H]3N(C(CO)C(C)C)C(=O)[C@@H]4C2C(=O)O1 (stereo not given in full)	Fulfilled
COc1ccc(CCNC(=O)[C@@H]2c3ccccc3C(=O)N(C3CCCCC3)[C@H]2c2ccc(CO)cc2)cc1	Fulfilled
CO[C@H]1O[C@H](CO)[C@@H](OC(=O)Nc2ccc(Br)cc2)[C@@H]2OC(=O)[C@@H](Cc3ccccc3)C/C=C/C[C@H](Cc3ccccc3)C(=O)O[C@@H]12	Fulfilled
CC(C)NC(=O)[C@@]1(c2ccc([N+](=O)[O-])cc2)CC(=O)N(C2CCCCC2)[C@@H]1c1ccc(CO)cc1	Fulfilled
Cc1ccc(S[C@]2(C(=O)NCc3ccccc3)CC(=O)N(C3CCCCC3)[C@@H]2c2ccc(CO)cc2I)cc1	Fulfilled
C=CC[C@@H](OC(=O)Nc1ccc(OC)cc1)c1ccc(O)c(F)c1	Fulfilled
C=C(COC)/C(=C/C[C@H](OC(=O)c1ccncc1)c1ccc(CO)o1)c1cnc2ccccc2c1	Not fulfilled

Reported z-score reaches at least -0.3 for COc1cc(NN2C(C(O)c3cc(OC)c(OC)c(OC)c3)C=CC3C(=O)N(C)C(=O)C32)cc(OC)c1OC (stereo not given) ?
Not fulfilled

Reported z-score reaches at least -0.3 for `COc1ccc(CCNC(=O)[C@@]2(Cc3ccccc3I)c3ccccc3C(=O)N(C3CCCCC3)[C@H]2c2ccc(CO)cc2)cc1` ?
Not fulfilled

Reported z-score reaches at least -0.3 for CCN(CC)c1ccc(N2CC=CC34O[C@@H]5/C=C\CCCOC(=O)C5[C@H]3C(=O)N(C(C)CO)[C@@H]4C2=O)cc1 (stereo not given in full) ?
Fulfilled

Reported z-score reaches at least -0.3 for C=CCC(OC(C)=O)[C@@H]1[C@@H](N(Cc2ccc(-c3cccc(C(F)(F)F)c3)o2)C(=O)Cc2ccc(OC)cc2)c2cc(OCCCO)ccc2N1C(=O)c1ccc(-c2ccccc2)cc1 (stereo not given in full) ?
Fulfilled

Reported z-score reaches at least -0.3 for CC(C)C(CO)N1C(=O)[C@@H]2[C@H]3C(=O)OCC=C[C@H]3OC23C=CCN(c2ccc(Cl)cc2)C(=O)[C@@H]13 (stereo not given in full) ?
Not fulfilled
